biological target: MAP kinase-interacting serine/threonine-protein kinase 2 (Homo sapiens, UniProt Q9HBH9); experiment: Inhibition of N-terminal 6His-tagged recombinant human full length wild type MNK2b using biotin-SGSGKRREILSRRPSYR-NH2 as substrate after 1 hr by HTRF assay
Sequence (Q9HBH9 whole entry): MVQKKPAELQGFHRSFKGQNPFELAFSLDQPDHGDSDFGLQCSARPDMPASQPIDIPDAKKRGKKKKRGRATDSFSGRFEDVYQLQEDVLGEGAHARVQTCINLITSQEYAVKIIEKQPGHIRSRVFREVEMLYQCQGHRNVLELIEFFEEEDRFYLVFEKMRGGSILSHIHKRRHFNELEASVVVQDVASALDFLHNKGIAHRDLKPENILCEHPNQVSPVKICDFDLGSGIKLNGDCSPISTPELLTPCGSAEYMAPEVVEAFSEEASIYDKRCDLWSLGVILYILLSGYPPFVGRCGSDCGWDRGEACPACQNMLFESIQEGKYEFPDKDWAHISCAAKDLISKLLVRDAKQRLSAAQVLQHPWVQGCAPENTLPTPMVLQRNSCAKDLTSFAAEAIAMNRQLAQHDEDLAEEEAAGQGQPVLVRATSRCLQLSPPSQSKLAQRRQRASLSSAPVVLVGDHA
pIC50: −log10 of the molar value.
MEASURED PROPERTY: pIC50

# annotated cases, reported pIC50 shown
| SAMPLE SMILES | pIC50 |
| --- | --- |
| Nc1ncccc1-c1nc2ccccc2[nH]1 | 6.05 |
| C[C@H]1CN(c2cccc3nc(-c4nc(-c5cc(C(=O)N(C)C)ccn5)cnc4N)n(C)c23)CCN1 | 8.52 |
| C[C@H]1CN(c2cccc3nc(-c4nc(-c5cccc(C(=O)N(C)C)c5)cnc4N)n(C)c23)CCN1 | 9.15 |

(1) CN(C)C(=O)c1cccc(-c2cnc(N)c(-c3nc4ccccc4[nH]3)c2)c1
(2) CN(C)C(=O)c1cccc(-c2cnc(N)c(-c3nc4cccc(N5CCNCC5)c4[nH]3)c2)c1
Identify the item whose pIC50 is the smaller number: 1 or 2 Answer with the label corresponding to your selection.
1
(1: 7.47, 2: 8.70)

(I) Nc1ncc(-c2ccccc2)cc1-c1nc2ccccc2[nH]1
(II) CN(C)C(=O)c1cccc(-c2cnc(N)c(-c3nc4cccc(N5CCNCC5)c4n3C)n2)c1
(III) CN(C)C(=O)c1cccc(-c2cnc(N)c(-c3nc4cccc(N5CCNCC5)c4[nH]3)n2)c1
In this exercise, place the 3 molecules in ascending sequence of their recorded pIC50. Give the labels in the order specified.
I, III, II
(I: 6.14, III: 7.70, II: 9.00)

----------
assay: Apparent permeability across apical to basolateral side in human Caco2 cells; details: Caco-2
MEASURED PROPERTY: Papp A→B (×10⁻⁶ cm/s)

| SAMPLE SMILES | READOUT VALUE |
| --- | --- |
| CN(C)C(=O)c1cccc(-c2cnc(N)c(-c3nc4cccc(N5CCNCC5)c4[nH]3)c2)c1 | 4 |

(P) C[C@H]1CN(c2cccc3nc(-c4nc(-c5cc(C(=O)N(C)C)ccn5)cnc4N)n(C)c23)CCN1
(Q) CN(C)C(=O)c1cccc(-c2cnc(N)c(-c3nc4cccc(N5CCNCC5)c4n3C)n2)c1
(R) CN(C)C(=O)c1cccc(-c2cnc(N)c(-c3nc4cccc(N5CCNCC5)c4[nH]3)n2)c1
In this exercise, place the 3 molecules in ascending sequence of their recorded Papp A→B. Give the labels in the order specified.
R, P, Q

----------
experiment: Lipophilicity, log D of the compound at pH 7.4; conditions: buffer
MEASURED PROPERTY: logD

| SAMPLE SMILES | logD |
| --- | --- |
| C[C@H]1CN(c2cccc3nc(-c4nc(-c5cc(C(=O)N(C)C)ccn5)cnc4N)n(C)c23)CCN1 | 1.9 |
| CN(C)C(=O)c1cccc(-c2cnc(N)c(-c3nc4cccc(N5CCNCC5)c4[nH]3)n2)c1 | 1.9 |
| CN(C)C(=O)c1cccc(-c2cnc(N)c(-c3nc4cccc(N5CCNCC5)c4[nH]3)c2)c1 | 1.8 |
| Nc1ncccc1-c1nc2ccccc2[nH]1 | 3 |

(P) CN(C)C(=O)c1cccc(-c2cnc(N)c(-c3nc4ccccc4[nH]3)c2)c1
(Q) CN(C)C(=O)c1cccc(-c2cnc(N)c(-c3nc4cccc(N5CCNCC5)c4n3C)n2)c1
Identify the entry with the larger logD. Options: P and Q Answer with the label corresponding to your selection.
P
